List of pKi values.
Target: CYP3A4 (Homo sapiens)
Sequence (P08684 whole entry): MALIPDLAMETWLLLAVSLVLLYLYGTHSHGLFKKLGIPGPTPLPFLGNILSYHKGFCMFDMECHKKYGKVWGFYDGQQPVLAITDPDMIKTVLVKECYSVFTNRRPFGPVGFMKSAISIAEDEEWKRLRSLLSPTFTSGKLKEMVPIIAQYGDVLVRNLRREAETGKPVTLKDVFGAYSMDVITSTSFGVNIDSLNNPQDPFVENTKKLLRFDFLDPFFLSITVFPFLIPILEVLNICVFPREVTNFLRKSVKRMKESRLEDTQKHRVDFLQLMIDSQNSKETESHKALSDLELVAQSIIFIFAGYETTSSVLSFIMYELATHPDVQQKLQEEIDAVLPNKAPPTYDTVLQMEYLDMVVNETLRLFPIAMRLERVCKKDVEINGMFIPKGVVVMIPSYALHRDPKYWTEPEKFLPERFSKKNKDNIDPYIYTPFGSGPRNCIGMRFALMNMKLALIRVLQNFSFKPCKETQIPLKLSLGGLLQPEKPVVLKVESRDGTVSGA
Assay: CYP3A4 inhibition and inactivation kinetics, nifedipine oxidation as marker reaction
Protocol: Enzyme incubations were performed in triplicate, with mechanical stirring in a water bath at 37 °C. […] Chromatograms were recorded at 254 nm. […] For all the flavonoids, half maximal inhibitory concentration (IC50), constant of inhibition (Ki), constant of inactivation speed (kinact), and inactivation efficacy (kinact/Ki) were determined. […]
# pKi: negative log10 of molar concentration; output just the value

Take a look at these entries with their results.
{"columns": ["Compound", "Value Kind", "Numeric Value"],
 "data": [
  ["O=C1CC(c2ccccc2)Oc2cc(O)cc(O)c21 (stereo not drawn) [pinocembrin, 5,7-dihydroxy-flavanone]", "pKi", 5.29],
  ["COc1ccc(-c2cc(=O)c3c(O)cc(O)cc3o2)cc1", "pKi", 4.92]
]}

Turning now to a further record.
// returns reported pKi for input O=c1cc(-c2ccccc2)oc2cc(O)cc(O)c12 [chrysin, 5,7-dihydroxy-flavone]
5.62
